experiment: Mouse PK study (IV and PO), plasma parent compound and psilocin by LC-MS/MS; assay type: in vivo; details: male, C57Bl/6, mouse, plasma, oral, 3 mg/kg, 3 mg/kg oral C(I); 0.5 h; Mean ± SD; read-out: Plasma concentration of C(I)
READOUT_TYPE: concentration at 0.5 h (ng/mL)
Give just the numeric value; ng/mL need not be written.

Query :: Sample CN(C)CCc1c[nH]c2cccc(OC(=O)c3ccc(Br)cc3)c12 — what was its concentration at 0.5 h?
Result :: 2.03

----------
assay: Mouse PK study (IV and PO), plasma parent compound and psilocin by LC-MS/MS; type: in vivo; conditions: male, C57Bl/6, mouse, plasma, oral, 1 mg/kg, 1 mg/kg oral C(I); 2 h; per animal; BLQ <0.5 ng/mL; read-out: Plasma concentration of C(I)
READOUT_TYPE: concentration at 2 h (ng/mL)
Give just the numeric value; ng/mL need not be written.

Query :: Sample CN(C)CCc1c[nH]c2cccc(OC(=O)c3ccc(Br)cc3)c12 — what was its concentration at 2 h?
Result :: 0.474

----------
target: HTR3A (5-HT3A) (Homo sapiens, UniProt P46098); assay: Ion channel assay (FLIPR membrane potential), blocker
Sequence (P46098 24-478): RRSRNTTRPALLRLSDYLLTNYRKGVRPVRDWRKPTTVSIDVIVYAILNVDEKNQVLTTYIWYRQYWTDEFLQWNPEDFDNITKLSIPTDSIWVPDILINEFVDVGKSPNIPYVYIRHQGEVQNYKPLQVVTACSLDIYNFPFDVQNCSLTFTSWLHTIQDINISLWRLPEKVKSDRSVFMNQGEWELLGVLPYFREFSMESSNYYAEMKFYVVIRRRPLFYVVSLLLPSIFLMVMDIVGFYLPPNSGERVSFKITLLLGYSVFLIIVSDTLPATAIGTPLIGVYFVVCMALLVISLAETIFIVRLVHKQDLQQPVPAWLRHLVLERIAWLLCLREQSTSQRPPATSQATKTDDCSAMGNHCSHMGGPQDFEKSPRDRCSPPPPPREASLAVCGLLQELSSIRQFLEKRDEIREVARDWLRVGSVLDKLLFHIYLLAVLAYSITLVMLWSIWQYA
READOUT_TYPE: IC50 (µM)
Give just the numeric value; µM need not be written.

Here's what some known entries look like.
- COc1ccc(C(=O)Oc2cccc3[nH]cc(CCN(C)C)c23)cc1 [C(V)]: 33.9
- CN(C)CCc1c[nH]c2cccc(OC(=O)CC3CC3)c12 [C(IV)]: 76.7
- CN(C)CCc1c[nH]c2cccc(OC(=O)c3cccc4c3OCCO4)c12 [C(XX)]: 3.77

Query :: Sample CN(C)CCc1c[nH]c2cccc(OC(=O)c3c(F)c(F)c(F)c(F)c3F)c12 [C(VI)] — what was its IC50?
Result :: 55.1

Query :: Sample CN(C)CCc1c[nH]c2cccc(OC(=O)c3ccc(Br)cc3)c12 [C(I)] — what was its IC50?
Result :: 7.52

----------
assay: Mouse PK study (IV and PO), plasma parent compound and psilocin by LC-MS/MS; format: in vivo; conditions: male, C57Bl/6, mouse, plasma, oral, 1 mg/kg, 1 mg/kg oral C(I); 2 h; mean (n = 2); read-out: Plasma concentration of C(I)
READOUT_TYPE: concentration at 2 h
Kindly format the answer as number then unit.

Query :: Sample CN(C)CCc1c[nH]c2cccc(OC(=O)c3ccc(Br)cc3)c12 — what was its concentration at 2 h?
Result :: 0.537 ng/mL

----------
test: Mouse PK study (IV and PO), plasma parent compound and psilocin by LC-MS/MS; assay type: in vivo; conditions: male, C57Bl/6, mouse, plasma, oral, 10 mg/kg, 10 mg/kg oral C(I); 0.25 h; Mean ± SD; read-out: Plasma concentration of C(I)
READOUT_TYPE: concentration at 0.25 h
Kindly format the answer as number then unit.

Query :: Sample CN(C)CCc1c[nH]c2cccc(OC(=O)c3ccc(Br)cc3)c12 — what was its concentration at 0.25 h?
Result :: 5.67 ng/mL

----------
Target: ADRA2A (Homo sapiens, UniProt P08913)
Sequence (P08913 1-465): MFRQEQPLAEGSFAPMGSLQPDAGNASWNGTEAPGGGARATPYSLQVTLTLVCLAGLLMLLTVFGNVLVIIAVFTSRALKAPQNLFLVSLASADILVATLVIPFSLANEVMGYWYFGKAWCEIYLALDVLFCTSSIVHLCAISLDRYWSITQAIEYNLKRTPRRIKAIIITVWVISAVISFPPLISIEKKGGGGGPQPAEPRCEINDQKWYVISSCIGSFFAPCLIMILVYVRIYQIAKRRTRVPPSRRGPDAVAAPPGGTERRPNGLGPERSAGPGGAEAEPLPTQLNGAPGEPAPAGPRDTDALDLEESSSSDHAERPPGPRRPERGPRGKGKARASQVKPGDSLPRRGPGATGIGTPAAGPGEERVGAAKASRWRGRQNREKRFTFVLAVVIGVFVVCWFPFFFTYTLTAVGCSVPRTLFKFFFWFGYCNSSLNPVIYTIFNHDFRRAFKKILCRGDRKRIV
Experiment: EFC-based cAMP secondary messenger assay, agonist mode
READOUT_TYPE: EC50

Here's what some known entries look like.
- CN(C)CCc1c[nH]c2cccc(OC(=O)c3c(F)c(F)c(F)c(F)c3F)c12 [C(VI)]: 65.1 µM
- COc1ccc(C(=O)Oc2cccc3[nH]cc(CCN(C)C)c23)cc1 [C(V)]: > 100 µM
- CN(C)CCc1c[nH]c2cccc(OC(=O)c3cccc4c3OCCO4)c12 [C(XX)]: > 100 µM
- CN(C)CCc1c[nH]c2cccc(OC(=O)c3ccc(Br)cc3)c12 [C(I)]: > 100 µM

Query :: Sample CN(C)CCc1c[nH]c2cccc(OC(=O)CC3CC3)c12 [C(IV)] — what was its EC50?
Result :: > 100 µM

----------
test: Mouse PK study (IV and PO), plasma parent compound and psilocin by LC-MS/MS; format: in vivo; settings: male, C57Bl/6, mouse, plasma, po, 3 mg/kg, C(I) in plasma; 3 mg/kg oral C(I); Mean ± SD; read-out: AUC0-tlast
READOUT_TYPE: AUC(0-t) (ng·h/mL)
Give just the numeric value; ng·h/mL need not be written.

Query :: Sample CN(C)CCc1c[nH]c2cccc(OC(=O)c3ccc(Br)cc3)c12 — what was its AUC(0-t)?
Result :: 5.54

----------
Test: Mouse PK study (IV and PO), plasma parent compound and psilocin by LC-MS/MS
Type: in vivo
Conditions: male, C57Bl/6, mouse, plasma, iv, 1 mg/kg, C(XX) in plasma; 1 mg/kg i.v. C(XX); Mean ± SD
Description: Briefly, the procedure was as follows. […] 19, 2022.
READOUT_TYPE: clearance (mL/min/kg)
Give just the numeric value; mL/min/kg need not be written.

Query :: Sample CN(C)CCc1c[nH]c2cccc(OC(=O)c3cccc4c3OCCO4)c12 — what was its clearance?
Result :: 320

----------
assay: Mouse PK study (IV and PO), plasma parent compound and psilocin by LC-MS/MS; assay type: in vivo; conditions: male, C57Bl/6, mouse, plasma, po, 3 mg/kg, C(I) in plasma; 3 mg/kg oral C(I); per animal; read-out: AUC0-tlast
READOUT_TYPE: AUC(0-t) (ng·h/mL)
Give just the numeric value; ng·h/mL need not be written.

Query :: Sample CN(C)CCc1c[nH]c2cccc(OC(=O)c3ccc(Br)cc3)c12 [C(I)] — what was its AUC(0-t)?
Result :: 5.26

----------
test: Mouse PK study (IV and PO), plasma parent compound and psilocin by LC-MS/MS; format: in vivo; details: male, C57Bl/6, mouse, plasma, po, 10 mg/kg, C(I) in plasma; 10 mg/kg oral C(I); per animal; read-out: Cmax
READOUT_TYPE: Cmax (ng/mL)
Give just the numeric value; ng/mL need not be written.

Query :: Sample CN(C)CCc1c[nH]c2cccc(OC(=O)c3ccc(Br)cc3)c12 — what was its Cmax?
Result :: 7.2

----------
assay: Mouse PK study (IV and PO), plasma parent compound and psilocin by LC-MS/MS; format: in vivo; conditions: male, C57Bl/6, mouse, plasma, po, 10 mg/kg, C(I) in plasma; 10 mg/kg oral C(I); mean (n = 2); read-out: Apparent t1/2 (converted)
READOUT_TYPE: half-life (h)
Give just the numeric value; h need not be written.

Query :: Sample CN(C)CCc1c[nH]c2cccc(OC(=O)c3ccc(Br)cc3)c12 — what was its half-life?
Result :: 1.31

----------
assay: Mouse PK study (IV and PO), plasma parent compound and psilocin by LC-MS/MS; format: in vivo; details: male, C57Bl/6, mouse, plasma, oral, 10 mg/kg, 10 mg/kg oral C(I); 2 h; Mean ± SD; read-out: Plasma concentration of C(I)
READOUT_TYPE: concentration at 2 h (ng/mL)
Give just the numeric value; ng/mL need not be written.

Query :: Sample CN(C)CCc1c[nH]c2cccc(OC(=O)c3ccc(Br)cc3)c12 [C(I)] — what was its concentration at 2 h?
Result :: 2.59

----------
test: Mouse PK study (IV and PO), plasma parent compound and psilocin by LC-MS/MS; type: in vivo; details: male, C57Bl/6, mouse, plasma, po, 10 mg/kg, C(I) in plasma; 10 mg/kg oral C(I); per animal; read-out: tmax
READOUT_TYPE: Tmax (min)
Give just the numeric value; min need not be written.

Query :: Sample CN(C)CCc1c[nH]c2cccc(OC(=O)c3ccc(Br)cc3)c12 — what was its Tmax?
Result :: 15

----------
assay: Mouse PK study (IV and PO), plasma parent compound and psilocin by LC-MS/MS; format: in vivo; settings: male, C57Bl/6, mouse, plasma, intravenous, 1 mg/kg, 1 mg/kg i.v. C(XX); 2 h; Mean ± SD; read-out: Plasma concentration of C(XX)
READOUT_TYPE: concentration at 2 h (ng/mL)
Give just the numeric value; ng/mL need not be written.

Query :: Sample CN(C)CCc1c[nH]c2cccc(OC(=O)c3cccc4c3OCCO4)c12 — what was its concentration at 2 h?
Result :: 1.05
